test system: primary human mesenchymal stem cells (hMSCs); assay: Chondrogenesis screening using primary human mesenchymal stem cells; type: cell-based; conditions: Homo sapiens, Mesenchymal stem cells, hMSC chondrogenesis; concentration required to induce 50% levels of chondrogenesis with TGF-β3 as positive control; read-out: Conc (nM) of 50% TGF-β3 activity
Readout: EC50 (nM)

Some solved cases for reference:
>>> numeric_readout("CS(=O)(=O)NCc1cc(F)cc(-c2nccc3[nH]c(-c4n[nH]c5ccc(-c6cncnc6)cc45)nc23)c1 [compound 293]")
30
>>> numeric_readout("c1cncc(-c2ccc3[nH]nc(-c4nc5c(-c6cccnc6)nccc5[nH]4)c3n2)c1 [compound 183]")
100
>>> numeric_readout("CC(C)Oc1ccc(NC(=O)c2n[nH]c3ccc(-c4cncc(CN5CCCCC5)c4)cc23)cn1 [compound 82]")
10
>>> numeric_readout("c1cc(-c2cncc3[nH]c(-c4n[nH]c5ccc(-c6cncc(CNCC7CCCC7)c6)cc45)nc23)cs1 [compound 250]")
100
>>> numeric_readout("Cc1cn(-c2ccnc3[nH]c(-c4n[nH]c5ccc(-c6cncc(NC(=O)C(C)(C)C)c6)nc45)nc23)cn1 [compound 223]")
10

[1] CN(C)CCNc1cc(F)cc(-c2cccc3[nH]c(-c4n[nH]c5ccc(-c6cncnc6)nc45)cc23)c1 [compound 516]
[2] CN(C)Cc1cncc(-c2ccc3[nH]nc(-c4cc5cnccc5[nH]4)c3n2)c1 [compound 442]
Would you mind telling me which has the lower recorded EC50 between 1 and 2 ? Give the label under which the chosen entry appears. 1

###

molecular target: CLK2 kinase (Homo sapiens); experiment: CLK2 kinase activity assay (Z-lyte FRET); details: Z-lyte Ser/Thr 6 peptide, 60 μM ATP, 1 h at room temperature;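 also: FRET read-out as coumarin to fluorescein emission ratio, unphosphorylated peptide as 0% and phosphorylated peptide as 100% controls, duplicate reactions, non-linear regression fit of dose-response curves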
Sequence (P49760 whole entry): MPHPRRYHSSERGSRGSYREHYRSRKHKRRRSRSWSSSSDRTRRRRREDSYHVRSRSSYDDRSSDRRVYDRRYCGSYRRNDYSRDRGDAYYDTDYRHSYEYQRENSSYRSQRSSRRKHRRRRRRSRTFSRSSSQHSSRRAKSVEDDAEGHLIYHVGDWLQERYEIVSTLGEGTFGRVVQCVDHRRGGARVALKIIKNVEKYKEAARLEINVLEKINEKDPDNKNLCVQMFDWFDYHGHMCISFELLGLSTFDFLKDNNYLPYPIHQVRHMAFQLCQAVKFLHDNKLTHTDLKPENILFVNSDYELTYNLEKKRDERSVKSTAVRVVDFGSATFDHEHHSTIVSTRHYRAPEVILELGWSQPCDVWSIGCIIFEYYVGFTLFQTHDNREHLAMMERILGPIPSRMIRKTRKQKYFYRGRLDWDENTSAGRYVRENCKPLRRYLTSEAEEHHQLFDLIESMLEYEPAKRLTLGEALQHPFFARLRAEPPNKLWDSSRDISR
Readout: EC50 (nM)

>>> numeric_readout("CCCCC(=O)Nc1cncc(-c2cnc3[nH]nc(-c4cc5cnccc5[nH]4)c3c2)c1")
3

[P] CC(C)N1CCC(c2nc(C(=O)Nc3cc4cc(-c5cnn(C)c5)ccc4cn3)co2)CC1
[Q] c1cncc(-c2ccnc3[nH]c(-c4n[nH]c5cnc(-c6cncc(CN7CCCC7)c6)cc45)cc23)c1
Given P and Q , report the one with the higher recorded EC50. Please indicate the selected item by its label. Q
(Q: 9 nM, P: 5 nM)

###

molecular target: CLK3 kinase (Homo sapiens, UniProt P49761); assay: CLK3 kinase activity assay (Z-lyte FRET); conditions: Z-lyte Ser/Thr 18 peptide, 156 μM ATP, 1 h at room temperature;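 also: kinase activity read as coumarin/fluorescein emission ratio by FRET, unphosphorylated peptide as 0% and phosphorylated peptide as 100% control, values from non-linear regression of dose-response curves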
Sequence (P49761 whole entry): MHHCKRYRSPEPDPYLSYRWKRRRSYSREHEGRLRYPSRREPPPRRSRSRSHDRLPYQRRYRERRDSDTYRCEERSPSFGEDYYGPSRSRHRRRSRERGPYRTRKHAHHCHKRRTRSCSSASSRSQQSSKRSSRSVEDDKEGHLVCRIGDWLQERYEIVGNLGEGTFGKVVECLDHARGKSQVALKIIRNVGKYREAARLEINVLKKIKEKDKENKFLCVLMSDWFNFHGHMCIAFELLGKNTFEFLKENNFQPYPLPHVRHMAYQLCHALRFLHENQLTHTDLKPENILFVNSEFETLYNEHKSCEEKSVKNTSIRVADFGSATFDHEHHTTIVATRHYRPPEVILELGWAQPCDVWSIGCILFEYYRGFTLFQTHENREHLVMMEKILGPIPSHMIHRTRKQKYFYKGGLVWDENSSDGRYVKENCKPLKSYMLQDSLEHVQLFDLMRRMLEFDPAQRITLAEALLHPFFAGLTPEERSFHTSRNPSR
Readout: EC50 (nM)

>>> numeric_readout("Cc1ncc(-c2ccc3[nH]nc(-c4nc5c(-c6cccc(F)c6)cccc5[nH]4)c3n2)n1C")
83
>>> numeric_readout("CCC(=O)Nc1cncc(-c2cc3c(-c4cc5c(N6CCN(C)CC6)nccc5[nH]4)n[nH]c3cn2)c1")
285
>>> numeric_readout("O=C1CCc2cccc(c2)-c2cncc3[nH]c(nc23)-c2n[nH]c3ccc(cc23)-c2cncc(c2)N1")
29
>>> numeric_readout("O=C(Nc1c[nH]nc1C(=O)Nc1ccc(OCCN2CCCC2)cc1)c1cccnc1")
3700
>>> numeric_readout("O=C(Nc1c[nH]nc1C(=O)Nc1cccnc1)c1cccnc1")
5300

[a] CN1CCN(Cc2ccc(NC(=O)c3n[nH]c4ccc(-c5cccnc5)cc34)cn2)CC1
[b] O=C(Nc1cncc(-c2cc3c(-c4cc5cnccc5[nH]4)n[nH]c3cn2)c1)C1CCCCC1
Between the entries labeled a and b , whose measured EC50 is lower? Output the label that corresponds to your choice. a
